Study system: T1, human TNFR2-His (human, UniProt P20333 23-257)
T1 construct: not shown: His tag
T1 sequence: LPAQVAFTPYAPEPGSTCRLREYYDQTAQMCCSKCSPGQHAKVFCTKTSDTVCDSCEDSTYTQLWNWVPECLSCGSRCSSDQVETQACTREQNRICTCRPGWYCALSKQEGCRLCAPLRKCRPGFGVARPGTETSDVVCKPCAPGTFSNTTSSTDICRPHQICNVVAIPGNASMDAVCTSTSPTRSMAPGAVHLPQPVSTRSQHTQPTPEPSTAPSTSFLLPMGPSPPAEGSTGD
Measurement notes: BLI, antibody on anti-Human Fc Capture (AHC) biosensors, human TNFR2-His in solution

Binder	Unit tag	Kd
ABV2 chimera (ABV2c) (antibody, human IgG1, kappa, V domains shown, VH and VL of mouse ABV2 fused with human IgG1 and human kappa constant regions; also called ABVc; chimeric anti-human TNFR2 antibody) VH: QIQLVQSGPELKKPGETVKISCKASGYTFTTFGMSWVKQAPGKGLKWMGWINTYSGVPTYADDFKGRFAFSLETSASTAYLQINNLKNEDTATYFCARRSNFAYWGQGTLVTVSA VL: DIVLTQSPASLAVSLGQRATISCRASESVDSSGNSFMHWYQQKAGQSFKLLIYRASNLESGIPARFSGSGSRTDFTLTINPVEADDVATYYCQQSNEDPWTFGGGTKLEIKR	nM	0.689
ABV2.1 (ABV2 hum #2 HD3) (antibody, V domains shown, humanized ABV2; also called parental antibody) VH: QVQLVQSGSELKKPGASVKVSCKASGYTFTTFGMSWVRQAPGQGLEWMGWINTYSGVPTYAQGFTGRFVFSLDTSVSTAYLQISSLKAEDTAVYFCARRSNFAYWGQGTLVTVSS VL: DIVLTQSPDSLAVSLGERATINCRASESVDSSGNSFMHWYQQKPGQPPKLLIYRASNLESGVPDRFSGSGSRTDFTLTISSLQAEDVAVYYCQQSNEDPWTFGGGTKVEIK	nM	4.42
ABV2.7 (antibody, human IgG1, kappa, V domains shown) VH: QVQLVQSGSELKKPGASVKVSCKASGYTFTTFGMSWVRQAPGQGLEWMGWINTYSGVPTYAQGFTGRFVFSLDTSVSTAYLQISSLKAEDTAVYFCARRSNFAYWGQGTLVTVSS VL: DIVLTQSPDSLAVSLGERATINCRASESLTASGNSFMHWYQQKPGQPPKLLIYRASNLESGVPDRFSGSGSRTDFTLTISSLQAEDVAVYYCQQSRHVNWTFGGGTKVEIKR	nM	0.3

Reference source: patent US20210371537A1
